# maps each entry to its PBM binding z-score
# Tested on: LXRa homodimer (NR concentration 270 nM)
# assayProcedure: PBM binding z-score (relative to random genomic background probes); higher = stronger binding; sequences stand for … in GC…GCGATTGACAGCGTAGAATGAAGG
readoutType: PBM binding z-score

>>> resultnumber("ATATGTAGGTGACATCCGGGTCATTCAGGCTATG")
0.319
>>> resultnumber("CCGAGTAGGCTATGGGGCATTCAGGCAACGGTGA")
-0.67
>>> resultnumber("CCGACTAGGTTATGGGGCATTCAGGCAACGGTGA")
0.00117
>>> resultnumber("CAAACTAGGTCACCAGAAGGTCAAAGTCCGCATG")
4.65
>>> resultnumber("GCTCGTAGATCAAGGTTAAGAAAGACTAAGCTAA")
-0.704

----------
# System: VDR:RXRa (NR concentration 270 nM, RXRa partner concentration 90 nM)
# assayProcedure: PBM binding z-score (relative to random genomic background probes); higher = stronger binding; sequences stand for … in GC…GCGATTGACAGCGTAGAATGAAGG
readoutType: PBM binding z-score

>>> result("CAAACTAGCTCACCGGAAGGTCAAAGTCCGCATG")
2.8
>>> result("CAGCCTAGGTCAGGGCCAGAATAGGAGGAACGTT")
0.0945
>>> result("ACTAGCAGGCCAAGGGTAACTCAAGATTAGTCCG")
-0.166
>>> result("CGTCCAAGGTCAGCAGGTCAGCGAAAGCGACGTG")
4.26
>>> result("CAAACTAGGTAAAGGTCAAAGTCGGTTTGTGCCA")
5.38
>>> result("TCATATAGGTAAACAAGTGAAAGTCCGTAAGTTA")
1.09
>>> result("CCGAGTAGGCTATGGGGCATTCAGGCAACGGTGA")
-0.947
>>> result("ATCGAAAGGTCGAAGGTGAGTAAACCCACCCGAA")
2.84

----------
# Test system: RARg homodimer (NR concentration 270 nM)
# assayProcedure: PBM binding z-score (relative to random genomic background probes); higher = stronger binding; sequences stand for … in GC…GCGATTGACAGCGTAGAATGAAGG
I would appreciate it if you labelled entries class 1 when PBM binding z-score is 1 or higher, otherwise class 0.

>>> label("CGTACTGGGCCATCAGGTCATTGATATCAACGTT")
"class 1"
>>> label("CCGACTGGGCCAAAGGTTACCATACTCAGTACGA")
"class 1"
>>> label("TCTGCTAGGTCAACGATGGTCAGCTTATCTGCTA")
"class 1"
>>> label("TCTTGTAGATTAATAGAGGTTAAGAAAGTGCGCT")
"class 0"
>>> label("CCAGACAAGTGAAAGGTAACTCAGTCTGGTACGC")
"class 0"
>>> label("CCTATTAGTTGTCCATAAGGGCAACCGAAGCTCG")
"class 0"
>>> label("AATACAGGCTCATCGTAGGCCAGAGTACGCACAG")
"class 0"
>>> label("TCTCGTAGATCAAAGGTTAAGAAAGCCGAAGCCT")
"class 0"
>>> label("TCGAGTAGGTTAGTCGGGGCATTCGGCCAACATA")
"class 0"
>>> label("CCGAGTAGGTTATGCGGCATTCAGGCAACGGTGA")
"class 0"
>>> label("GCTATTAGTTGAAAGGGCACCCGAATGATTCTCG")
"class 1"
>>> label("CGTACTAGGTCATTGACAGGACAGTGAATAGTAA")
"class 1"
>>> label("TAGCTTAGGTCAGATCGGGCCAGTATACGCTATA")
"class 1"
>>> label("GATACAGGGTCAGATAGAGGCCAGAGTATGGAAA")
"class 1"
>>> label("ATCTCTAGGTAAAGATAGTTTAGTGAATGCAAAT")
"class 0"
>>> label("TGAATGAGGTTAAAGATCAGGGAACGTGGCGTCG")
"class 1"
>>> label("GCCATTAGTTGAAAGGGCAACCGAATGATTCTCG")
"class 1"
>>> label("CCTACTGGGCCAAAGATCATTGATTCCAATGCTC")
"class 0"

----------
# System: RXRa homodimer (NR concentration 180 nM)
# assayProcedure: PBM binding z-score (relative to random genomic background probes); higher = stronger binding; sequences stand for … in GC…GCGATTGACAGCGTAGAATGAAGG
readoutType: PBM binding z-score

>>> resultnumber("CAAACTAGGTCAAGAAGTCAAAGTCCGCTTCCCG")
2.97
>>> resultnumber("ACTATTAGTTGAGACGAGGGCAACGGATAGGTTG")
0.585
>>> resultnumber("AGAATGAGGTTACCAACGATCAGGGAAACGCTTG")
2.45
>>> resultnumber("AGTCAAAGTTCAGGACGAGGTAACGTATAGCACG")
3.15
>>> resultnumber("TCTTGTAGATCAACAGTAGGTTAAGAAAGATCGA")
0.463
>>> resultnumber("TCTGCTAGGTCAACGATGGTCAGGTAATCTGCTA")
3.11
>>> resultnumber("GTACCAAGGTGAATAGGTCGGTGATGAGTAGGCG")
1.14
>>> resultnumber("CGAACTAGGTCAAGGACTGTGAATCTCCGCACGC")
2.35
>>> resultnumber("CCGAGTAGGTTATGGGGTATTCAGGCAACGGTGA")
0.873
>>> resultnumber("CCTTCTGGGCCAAAAAGGTCATTGATGCCGATAA")
4.8
>>> resultnumber("TCAGAAAGGTGAAGGTAACTCAGGTACGCAGTCG")
2.41
>>> resultnumber("GATACAGGGTCAGCGAGAGGCCAGAGTATGGAAA")
4.6
>>> resultnumber("CTTATTAGTTGACCATAAGGGCAACCGAAGCTCG")
0.722
>>> resultnumber("ACTCTTAGTTGACTTAGGGCAACCGATACGACGC")
0.605
>>> resultnumber("TCAGCCAGGTGAAGGTAACTCAGGTACGCAGTCG")
0.607
>>> resultnumber("GATACAGGGTCAAGGCCAGGGTACGCGTATTGAT")
5.97
>>> resultnumber("CAAACTAGGTCAAGAGGACAAAGTCCGCTTCCCG")
2.74
>>> resultnumber("CGAACTAGGTCAAGCACAGTGAATCTCCGCACGC")
2.84
>>> resultnumber("GGAACGAGGGCATTCGAGTTGCTAGCATGGCGAT")
0.425
>>> resultnumber("TCTCGGAGGACACGAAGGTGAGAGCTTTCCAGAG")
0.152
>>> resultnumber("TCATATAGGTAAAAGGCGAAAGTCGGTGTGGTAA")
0.665
>>> resultnumber("GCTGCTAGGTCAACTGATGGTAAGCTAAAGCTCG")
2.73
>>> resultnumber("ACTATTAGTTGAGACGAGGGCCACCGATAGGTTG")
0.26
>>> resultnumber("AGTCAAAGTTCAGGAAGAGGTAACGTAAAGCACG")
2.93
>>> resultnumber("ACTTGCGGGTCAACGAGGTTATAGCACGCGTATA")
5.33
>>> resultnumber("ATCGAAAGGTCGACGATGTGAGTATACACCGTTT")
4.27
>>> resultnumber("CCAGAGAGGTGAAAGGTAACTCAGTCTGGTACGC")
3.56
>>> resultnumber("CAGCCTAGGTCAGGGCCAGTAGAGGAGGAACGTT")
1.35
>>> resultnumber("ATCGAAAGGTCGTGAGGTGGGTATACAGAAAGGC")
5.16
>>> resultnumber("AGAATGAGGTTATACGTAAATCAGGGAAGAAAGT")
2.06
>>> resultnumber("GATACAGGGTCAGCTATAGGCCAGAGTATGGAAA")
4.02
>>> resultnumber("TCTTGTAGATCAAAGGTTTAGAAAGCCGAAGCCT")
0.291
>>> resultnumber("GCGATTAGTTGAAAGGGCAACCGAATGATTCTCG")
1.27
>>> resultnumber("CAAACTAGGTCAAGGGCAAAGTCGGTTTGTGCCA")
3.06
>>> resultnumber("TCATATAGGTAAACGGGTGAAAGTCCGTAAGTTA")
1.03
>>> resultnumber("AGAATGAGGGCACGCTGAGTTGATAGCAGAGTAG")
1.7

----------
# System: PPARg:RXRa IVT, anti-PPARg (NR concentration 270 nM, RXRa partner concentration 90 nM)
# assayProcedure: PBM binding z-score (relative to random genomic background probes); higher = stronger binding; sequences stand for … in GC…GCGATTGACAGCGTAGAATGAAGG
I would appreciate it if you labelled entries fulfilled when PBM binding z-score is 3 or higher, otherwise not fulfilled.

>>> label("ATATCTAGGTAAAGTTCAGTGAAAGATCGATAGA")
"fulfilled"
>>> label("CCGACTGGGGCAAGGTTACCAGAACGCACAGCCA")
"fulfilled"
>>> label("CTACCAACGTGAACAAGGTCGTTGATTACTATTC")
"not fulfilled"
>>> label("CCTACTGGCCCATCAGGTCATTGATATCAACGTT")
"not fulfilled"
>>> label("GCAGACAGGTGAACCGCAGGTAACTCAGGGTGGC")
"not fulfilled"
>>> label("TCTGCTAGGTCAGTTGGTCAGATAACGAGCTGCC")
"fulfilled"
>>> label("ACAATTAGTTGAGACGAGGGCAACCGATAGGTTG")
"not fulfilled"
>>> label("ACAGACAGGTGATGAAGGTTACTCAGGCTATCAT")
"not fulfilled"
>>> label("GCAGACAGGTGAAACGCAGGTAGCTCAGGGTGGC")
"not fulfilled"
>>> label("CTTCCAAGGTGAACAAGGTCGTTGATTACTATTC")
"not fulfilled"
>>> label("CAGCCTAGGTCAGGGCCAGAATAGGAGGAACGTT")
"not fulfilled"
>>> label("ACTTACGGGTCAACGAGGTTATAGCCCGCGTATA")
"fulfilled"
>>> label("CAAACTCGGTCAAGGTCAAAGTCGGTTTGTGCCA")
"fulfilled"
>>> label("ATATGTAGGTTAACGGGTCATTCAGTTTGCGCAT")
"fulfilled"
>>> label("AGTCAAAGTTCACTAGGTAAGGTAAGATTCAGCT")
"fulfilled"
>>> label("AGAATGAAGTTAAGATCAGGGAAACAGAATACAT")
"not fulfilled"
>>> label("CGTCCAAGGTCAATGCTACGTCAGTGAAAGCATT")
"fulfilled"
>>> label("GCTCGGAGGACAAGGTCATAGCTTTGTCCGTAGA")
"not fulfilled"
>>> label("CCTACTGGGCCATAAAGGTCATTGATGCCGATAA")
"fulfilled"
>>> label("TCATCTAGGTAAATGCTAGGTGAAAGTCCGATCT")
"fulfilled"
>>> label("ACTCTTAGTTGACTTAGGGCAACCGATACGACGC")
"not fulfilled"
